Where do the numbers come from? From patent US9540424B2.

# EXPERIMENTAL TARGET: HSA (Homo sapiens, UniProt P02768)
# TEST PARAMETERS: binding to HSA from pH 7.4 down to pH 5.5; symbols not defined
REPORTED METRIC: Resistant to pH 7.4→5.5?

MOLECULE	VALUE MEASURED
SABA2: SABA core sequence from PROfusion; in Table 5 stands for SABA2.1 (protein) EVVAATPTSLLISWPKYDKTGHYYRITYGETGGNSPVQEFTVPTRQTTATISGLKPGVDYTITVYAVSKDDYYPHEHRPISINYRT	pH sensitive
SABA4: SABA core with a scaffold mutation; same BC, DE, FG loops as SABA5; in Table 5 stands for SABA4.1 (protein) EMVAATPTSLLISWEDDSYYSRYYRITYGETGGNSPVQEFTVPSDLYTATISGLKPGVDYTITVYAVTYDVTDLIMHEPISINYRT	pH sensitive
